# TARGET DESC: ETS1 (UniProt P14921)
# Sequence: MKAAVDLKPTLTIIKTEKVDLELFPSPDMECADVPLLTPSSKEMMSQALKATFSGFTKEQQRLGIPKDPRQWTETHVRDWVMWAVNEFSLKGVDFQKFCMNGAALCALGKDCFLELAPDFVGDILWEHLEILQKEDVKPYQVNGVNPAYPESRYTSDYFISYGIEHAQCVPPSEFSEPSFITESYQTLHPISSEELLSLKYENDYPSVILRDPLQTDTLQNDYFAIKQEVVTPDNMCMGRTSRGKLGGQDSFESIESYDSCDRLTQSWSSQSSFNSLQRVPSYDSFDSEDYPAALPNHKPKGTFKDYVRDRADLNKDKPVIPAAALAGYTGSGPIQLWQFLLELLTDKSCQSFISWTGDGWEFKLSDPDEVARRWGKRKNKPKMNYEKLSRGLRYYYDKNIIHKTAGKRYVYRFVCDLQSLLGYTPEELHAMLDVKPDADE
# ASSAY NAME: ETS1 binding intensity (PBM fluorescence) in presence of RUNX1, normalised to ETS1-only experiment (arbitrary fluorescence units); higher = stronger binding
# MEASUREMENT PARAMETERS: ETS1 concentration 1 nM; RUNX1 concentration 25 nM
PROPERTY MEASURED: ETS1 binding intensity
// keep it numeric: no unit symbol after the value

| SEQ | ETS1 binding intensity |
| --- | --- |
| AACACCACTTCCTACTGTGAAACCACACTGTATTTG | 588 |
| GAGCCACCGGAAACGGAGCTGCGGCCGCGCCCCGCC | 7820 |
| AAGATGCCCCCTTCCGCTGGAAAGCGGTAATGCCCA | 705 |
| TGCCACCTGCTTCCTGCCTGTGTAGCCACAAGGGAC | 960 |
| GGGAACTCACACCGGAAACCACAGAACCAAGAGTGG | 16300 |

Okay, now this sequence:
Which ETS1 binding intensity value belongs to `GTTTTCAAGGCAGGAAGTGGCTGTGGTGGCACGGAG` ?
21300
